src = patent US20110098217A1

Target: human GLP-1 receptor (human, UniProt P43220 24-463)
Test: cell-based or functional assay
Bridge positions count the residues as written; N and C are the ends. Square brackets hold non-standard residues; d marks the D form. Primed or numbered codes have the meaning given here. Ends that are not written are not given here. PEG 20 kDa″ = 20 kDa polyethylene glycol (PEG); PEG 20 kDa = 20 kDa polyethylene glycol; PhLac = O=C(O)[C@@H](O)Cc1ccccc1
endpoint.label: GLP-1 agonism EC50 (nM)
Give the number; nM is assumed, so skip it.

Some solved entries appear below for comparison.
{"binder": "[PhLac]TSDYSKYLDERRAQDFVQWLMDTGPSSGAPPPSC(PEG 20 kDa)-NH2 (lactam 7-11) [[PLA6, K12E16(Lactam), D28,CEX-C40(20 kDa)]G(6-40)]", "data.value": 657}
{"binder": "[PhLac]TSDYSKYLDERRAKDFVQWLMDTGPGPGPGPGPC(PEG 20 kDa″)-NH2 (lactam 11-15) [[PLA6, E16K20(Lactam),D28,GP-C40(20 kDa)]G(6-40)]", "data.value": 43.6}

Shifting focus to the binder that follows.
// field: GLP-1 agonism EC50; key: [PhLac]TSDYSKYLDERRAKDFVQWLMDGGPSSGAPPPSC(PEG 20 kDa″)-NH2 (lactam 11-15) [[PLA6, E16K20(Lactam),D28,G29, CEX-C40(20 kDa)]G(6-40)] ; value = 180
